# experimental_target: Drosophila melanogaster LC8 (residues 1-89), expressed in isolation for ITC (Drosophila melanogaster, UniProt Q24117 1-89)
# Sequence (Q24117 whole entry, the tested form may be a part): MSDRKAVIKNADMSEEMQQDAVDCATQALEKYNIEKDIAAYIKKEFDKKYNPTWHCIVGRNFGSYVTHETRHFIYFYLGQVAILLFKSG
# method_notes: ITC
pKd: −log10 of the molar value.
Below is a list of entries, each paired with its recorded pKd value.

> print(dat)
                                     binder  test.value
1  TLYKNAATQTER [Panx peptide residues 455-466 (Panx1), LC8 binding site #1]       ~7.12

Alright, here's another binder for you.
Challenge: Request the reported pKd associated with RTATRDAGTQVRLE [Panx peptide residues 467-480 (Panx2), LC8 binding site #2]
Response given: ~6.85

Each recorded value in this set is attributed to paper doi:10.1101/2021.01.08.425619.
